Species: Rattus norvegicus
Protocol Notes: Toxicity in Sprague-Dawley rat assessed as locomotor hyperactivity treated bilateral injection into nucleus accumbens at 50 ug
Format: organism-based
Run Conditions: in vivo, other
Property Name: Activity

Solved cases (5 shown):
>>> observed_measurement("Br.CCCCN(CCCC)C(C)Cc1ccc(O)c(O)c1 (racemic)")
"Non-toxic"
>>> observed_measurement("Br.CC(C)N(C)C(C)Cc1ccc(O)c(O)c1 (racemic)")
"Non-toxic"
>>> observed_measurement("Br.CCN(CC)C(C)Cc1ccc(O)c(O)c1 (racemic)")
"Toxic"
>>> observed_measurement("Br.CC(C)NC(C)Cc1ccc(O)c(O)c1 (racemic)")
"Non-toxic"
>>> observed_measurement("COc1ccc(CC(C)N)cc1OC.Cl (racemic)")
"Non-toxic"

Name the reported Activity value associated with the compound Br.CCNC(C)Cc1ccc(O)c(O)c1 (racemic)
Toxic

Fill in the blank: the reported Activity of Br.CC(Cc1ccc(O)c(O)c1)N(C)C (racemic) is ____.
Non-toxic

Any idea what Activity was measured for Br.CCCN(CCC)C(C)Cc1ccc(O)c(O)c1 (racemic) ?
Toxic

Please give the measured Activity for this compound: Br.CCCCNC(C)Cc1ccc(O)c(O)c1 (racemic)
Non-toxic

For the compound CCCNC(C)Cc1ccc(OC)c(OC)c1.Cl (racemic) , what Activity is on record?
Non-toxic

---

Species on record: Rattus norvegicus
Protocol Notes: Toxicity in Sprague-Dawley rat assessed as gnawing up to 50 ug injection into nucleus accumbens
Assay type: organism-based
Run Conditions: in vivo, other
Property Name: Activity

>>> observed_measurement("Br.CCCNC(C)Cc1ccc(O)c(O)c1 (racemic)")
"Toxic"
>>> observed_measurement("Br.CCN(CC)C(C)Cc1ccc(O)c(O)c1 (racemic)")
"Non-toxic"
>>> observed_measurement("Br.CC(Cc1ccc(O)c(O)c1)N(C)C (racemic)")
"Non-toxic"
